For each of the compounds below, state its GI50.
- Tested on: EKVX
- protocol text: NCI tumour cell line growth inhibition, 48 h
The source made the active and inactive calls. Cut-off read from the data, not from the text of the source: active = GI50 up to about 1.1 µM and inactive = higher.

The following compounds have reported results that may help.
CCOc1ccc(NC(=O)/C(Cc2nc3ccccc3nc2O)=N\O)cc1 = 75 µM (inactive)
CN(C)/C=C(\C(=O)c1ccccc1)n1nc(-c2ccccc2)cc1-c1ccccc1 = > 10 µM (inactive)
CCC(O)(Cc1ccc(OC)cc1)c1ccc(OC)cc1 (configuration not stated) = > 100 µM (inactive)

I would be grateful if you could provide GI50 for each of the following entries.
1. COC(=O)c1cc2c3c(ccc2[nH]1)N(C(=O)c1cc2cc(OC)c(OC)c(OC)c2[nH]1)CC3CCl (configuration not stated)
2. COC1/C=C/OC2(C)Oc3c(C)c(O)c4c(c3C2=O)C(=O)C=C(NC(=O)/C(C)=C\C=C\C(C)C(OC=O)C(C)C(O)C(C)C(OC(C)=O)C1C)C4=O (configuration not stated)
3. C/C(=N\NS(=O)(=O)c1ccc(C)cc1)C(CN1CCOCC1)C(c1ccccc1)c1c(O)c2ccccc2oc1=O (configuration not stated)
4. CCOC(=O)C(C(=O)OCC)=C1C=C(c2ccccc2)c2ccccc21
5. O=C1Nc2ccccc2N/C1=C\C(=O)c1ccccc1O

Given back:
["> 100 µM (inactive)", "14.7 µM (inactive)", "> 100 µM (inactive)", "> 100 µM (inactive)", "> 100 µM (inactive)"]

Please state GI50 for every compound in the list that follows.
1. COc1ccc(-c2cc(-c3ccccc3)c(C#N)c(=O)[nH]2)cc1
2. N#[N+]c1cc2c(cc1Br)-c1ccccc1C2
3. O=C(CO[N+](=O)[O-])OCC(=O)c1ccccc1
4. Cc1ccc2nc(-c3ccc(N)c(Br)c3)sc2c1
5. C=CCC1=C(C)C[C@@H]2CCC(=O)C=C12

Given back:
["> 100 µM (inactive)", "24.5 µM (inactive)", "> 100 µM (inactive)", "15.2 µM (inactive)", "> 100 µM (inactive)"]

* * *

- System: NCI/ADR-RES
- protocol text: NCI tumour cell line growth inhibition, 48 h
Activity calls are given as the source filed them. No stated cut-off is given here; in the data, active = GI50 up to about 1.1 µM and inactive = higher.
Return exactly one item of active, inactive

Asked: Kindly provide the recorded test outcome for the following compound: CC(C)(C(=O)N(C(=O)N1CCN(c2ccccc2)CC1)S(=O)(=O)c1ccccc1)c1ccc(Cl)cc1
Given back: inactive

* * *

- Test system: ACHN
- protocol text: NCI tumour cell line growth inhibition, 48 h
Activity calls are given as the source filed them. Rule as the data show it: active = GI50 up to about 1.1 µM and inactive = higher.
Please provide measured GI50 for the entries that follow.

Please give GI50, item by item, for the list that follows.
1. CC(C)C1CO[C@]2(C)CCC(=O)N12 (stereo partly specified)
2. COC(=O)c1c/c(=N\NC(=O)CC(=O)Nc2ccc(C)cc2)c2ccccc2o1
3. CSCCC(NC(=O)Cc1ccc(C(=O)c2ccccc2)cc1)C(=O)O (stereo unspecified)
4. O=C(Cn1c(C(=O)/C=C/c2cccs2)nc2ccccc21)c1ccc(Cl)cc1
5. CNC(=O)c1ccccc1-[s+]1c2ccccc2c(=O)n1C (stereo unspecified)

Given back:
["> 100 µM (inactive)", "> 100 µM (inactive)", "> 100 µM (inactive)", "26.6 µM (inactive)", "> 100 µM (inactive)"]

Entry CNC(=O)/C(=C/c1ccc(OC)cc1)c1cc(OC)c(OC)c(OC)c1 , GI50 reported as 8.65 µM (inactive)

* * *

- Test system: RXF 393
- protocol text: NCI tumour cell line growth inhibition, 48 h
The source made the active and inactive calls. Rule as the data show it: active = GI50 up to about 1.1 µM and inactive = higher. Residues, ends and D or L forms follow the SMILES beside them. *: point of attachment. Boc = CC(C)(C)OC(=O)*; OBn = c1ccc(CO*)cc1
Hi! Could you answer with just one of these? active, inactive

Illustrative cases are given below, each with its answer.
CCCCCCCCCCCCCCCCCCNc1nc(=O)n(C2CC(O)C(COP(=O)(O)O)O2)cc1F (stereo not given) = inactive
COc1cc(C2c3[nH]c4ccc(F)cc4c3C[C@H]3COC(=O)N23)cc(OC)c1O (stereo not given in full) = inactive
CCN1C[C@]2(C)CC[C@H](OCc3ccccc3)C34C5C[C@@H]6CC[C@](O)(C(C[C@@H]32)C14)C5[C@H]6OCc1ccccc1 (stereo not given in full) = inactive
CN(C)CCCNC(=O)c1cccc2nc3ccccc3nc12 = inactive
CN(C(=O)c1cc2c(s1)sc1c(=O)n(C)c3ccccc3c12)c1ccccc1 = inactive
N=c1oc2ccccc2cc1-c1nc2ccccc2c(=O)[nH]1 = inactive
Cc1cc(NC(=O)NC(=O)c2ccccc2NC(=O)CN)ccc1Oc1ncc(Br)cn1 = active
CCOC(=O)CCc1cn2cc(Br)nc(OC)c2n1 = inactive

Asked: Kindly provide the recorded test outcome for the following compound: CC(=O)SC(SC(C)=O)SC(C)=O
Given back: inactive

Asked: Name the outcome recorded for CC(=O)Nc1ccc(COC(O)CN2CCCCC2)cc1[N+](=O)[O-] (stereo not given) in the assay.
Given back: inactive

Asked: State the result this test recorded for CC(C)CC(NC(=O)OC(C)(C)C)C(=O)NC(CC(=O)OCc1ccccc1)C(=O)OCc1ccccc1 (stereo not drawn) (Boc-Leu-Asp(OBn)-OBn; configuration not given here) .
Given back: inactive

Asked: # fetch the recorded call for O=C1C(Cl)N(c2c(Cl)cccc2Cl)C1c1c[nH]c2ccccc12 (stereo not given) here
Given back: inactive

Asked: Write down the call the test reported for this compound. Item: CC1=C(C(=O)CC(=O)C(=O)Nc2ccccc2)Sc2ccccc2N1
Given back: inactive

Asked: Field: outcome | Entry: COc1cc(/C=C/C(=N\NC(N)=S)c2sc(NNC(C)=O)nc2C)ccc1O
Given back: inactive

* * *

- Test system: MDA-MB-231
- protocol text: NCI tumour cell line growth inhibition, 48 h
The source made the active and inactive calls. No stated cut-off is given here; in the data, active = GI50 up to about 1.1 µM and inactive = higher.
Your answer must be one of the following: true for active, false for inactive

Worked set:
C=C(Cl)C(C)(Cl)CCC(Cl)C(C)C (stereo not drawn) = false
Cc1c(S(=O)(=O)N/C(=N\O)Nc2ccc(Cl)c(Cl)c2)sc2ccc(Cl)cc12 = false
COC1=C(OC)C(=O)C(Sc2ccc3ccccc3c2)=CC1=O = false
O=C1c2ccccc2-c2nc(-c3ccncc3)cc3c2c1nc1ccccc13 = false
Cc1nc(O)nc2nc3ccc(Cl)cc3c(NC(C)(CO)CO)c12 = false
COCC(=O)OC1CCn2c1nc1c2C(=O)C(C)=C(NC(C)=O)C1=O (stereo not drawn) = false

In the following, a different compound is considered.
Asked: Which outcome was entered for the compound N#CCN(Cc1ccccc1)[C@@H]1CCC[C@]1(O)C#Cc1ccc2c(c1)OCO2 in this test?
Given back: false

* * *

- System: RPMI-8226
- protocol text: NCI tumour cell line growth inhibition, 48 h
Activity calls are given as the source filed them. Rule as the data show it: active = GI50 up to about 1.1 µM and inactive = higher. Where a SMILES comes first, the peptide text is derived from it. [ ]: non-standard residue; d: D form. The star is where a group is joined. Cbz = O=C(OCc1ccccc1)*; Aib = CC(C)(N)C(=O)O; OBn = c1ccc(CO*)cc1
Please reply with one of these outcomes: 1 (active), 0 (inactive)

CC(=O)Oc1ccc(-c2cc3ccccc3oc2=O)cc1 = 0
c1cncc(C(Nc2cccc3cccnc23)Nc2cccc3cccnc23)c1 = 0
CC(C)(C)c1cc(Oc2ccc(C#N)c(C#N)c2)cc(C(C)(C)C)c1 = 0
COC1=C(OC)C(=O)C(Sc2ccc3ccccc3c2)=CC1=O = 1
CCCCCCCCC(O)C#CC(N)=O (stereo not given) = 0
CNc1nc2n(CCO)c(-c3ccccc3)c(-c3ccccc3)nc-2c(=O)n1 = 0
CC(NC(=O)C(C)(C)NC(=O)C(CC(=O)OCc1ccccc1)NC(=O)OCc1ccccc1)C(N)=O (stereo not given) (Cbz-Asp(OBn)-[Aib]-Ala-NH2; configuration not given here) = 0
O=c1[nH]nc(NNc2ccccc2)c2nnn(C3CCCCC3)c12 = 0

Asked: Dear colleague, could you share the recorded outcome for O=C1C2C3C=CC(C2C(=O)N1CN1CCSCC1)C1C2C(=O)N(CN4CCSCC4)C(=O)C2C31 (stereo not given) when you have a moment?
Given back: 0

Asked: For N=c1oc2ccc(Cl)cc2cc1C(N)=O , which call appears in the assay record?
Given back: 0

* * *

I'd appreciate it if you could supply GI50 values for the items below.
- Tested on: EKVX
- protocol text: NCI tumour cell line growth inhibition, 48 h
Calls of active or inactive are those of the source. Cut-off read from the data, not from the text of the source: active = GI50 up to about 1.1 µM and inactive = higher.

A selection of reference data follows.
CN(C(=O)OC(C)(C)C)[C@H]1CCCC[C@H]1N1CCCC1 = > 100 µM (inactive)
COc1cc(CCc2ccc(OCCN(C)C)cc2)cc(OC)c1OC = > 100 µM (inactive)
CCCCSC1=N/C(=C\c2ccccc2O)C(Cl)=N1 = > 100 µM (inactive)
C=CCNC(=O)NC(=O)CSC1=NC(=O)C2(NN1)c1ccccc1-c1ccccc12 = > 10 µM (inactive)
O=c1[nH]c(=O)n(C2OC(CO)C(O)C2O)cc1OCc1ccccc1 (stereo unspecified) = > 100 µM (inactive)

Batch: GI50 for all items listed.
1. CC(C)(C)OC(=O)NC(Cc1ccc(OCc2ccccc2)cn1)C(=O)O (stereo unspecified)
2. CCOC(=O)Nc1ccc(S(=O)(=O)Nc2ccc(Br)cc2)cc1
3. C=CC(=O)Nc1ccccc1CC(c1c[nH]c2ccccc12)c1c[nH]c2ccccc12
4. CC1=C(C(=O)OCCO[N+](=O)[O-])C(c2ccccc2C(F)(F)F)C(C(=O)OC(C)C)=C(C)N1 (stereo unspecified)
5. COc1ccc(C2=C(N)c3ncccc3C2=O)cc1

Given back:
> 100 µM (inactive)
29.2 µM (inactive)
17.5 µM (inactive)
24.6 µM (inactive)
45 µM (inactive)

Item O=CC1CCC=CC1NC(=O)OCc1ccccc1 (stereo unspecified) ; assay system EKVX; GI50 reported as > 100 µM (inactive)
